# Test Summary: NCI Yeast Anticancer Drug Screen. Data for the rad18 strain (AID 177)
# Condition Notes: S. cerevisiae rad18 mutant growth inhibition; at 100.0 µM
The panel holds about 79,000 compounds, 15% with a hit somewhere; the sample as a whole holds those more often. Calls of active or inactive are those of the source. Rule as the data show it: active = growth inhibition above about 70%; inactive = the rest.
Could you please pick one outcome from this set? TRUE for active, FALSE for inactive

| Compound | Discrete Label |
| --- | --- |
| CCCCCCCC1(N=[N+]=[N-])C(=O)c2ccccc2N(C)C1=O (centres undefined) | TRUE |
| c1ccc2c(c1)c1ncccc1c1nccnc21 | FALSE |

[in] Test call for this compound, please: "O=[n+]1c2ccc(Cl)cc2n([O-])c2ccc(Cl)cc21"
[out] FALSE

[in] Test call for this compound, please: "CN(Cc1cnc2nc(N)nc(N)c2n1)c1ccc(C(=O)N[C@@H](CCC(=O)O)C(=O)O)cc1"
[out] TRUE

[in] Test call for this compound, please: "O=[N+]([O-])c1ccc(=S)[nH]c1"
[out] TRUE

====

# Test Summary: NCI Yeast Anticancer Drug Screen. Data for the bub3 strain (AID 167)
# Condition Notes: S. cerevisiae bub3 mutant strain, at 33.0 µM, active compounds read high
About 79,000 compounds went through this panel and 15% of them were active in at least one assay; those are over-represented in the sample as a whole.
If the reported growth inhibition equals or exceeds 20%, assign true. If not, assign false.

| Structure As Smiles | Discrete Label |
| --- | --- |
| Cc1c(Cl)ccc2c1S(=O)(=O)c1cccc(Cl)c1-2 | false |
| c1ccc2c(c1)C(=NCCCN1CCCCCC1)c1cccn1-2 | false |
| CC(C)/C(Cl)=N\OC(=O)Nc1ccc(F)cc1 | true |
| O=CNc1ccc2c(c1)C(=O)c1ccccc1-2 | true |

[in] Hello, I need to know if "COC(=O)C1=C(C)NC(C)=C(C(=O)OC)C1c1cccc(/[N+]([O-])=C/c2ccccc2)c1" has measured growth inhibition not below 20%. Thanks!
[out] true

[in] Hello, I need to know if "Oc1c(Br)cc(Br)cc1C1CCCCC1" has measured growth inhibition not below 20%. Thanks!
[out] true

====

# Test Summary: NCI Yeast Anticancer Drug Screen. Data for the mgt1 strain (AID 153)
# Condition Notes: S. cerevisiae mgt1 mutant growth inhibition; at 11.0 µM; active compounds read high
Compounds without any hit were thinned out: in the full panel of roughly 79,000, 15% have a hit.
compounds and their reported growth inhibition
Number in %, nothing else.

Here is how some compounds turned out for growth inhibition.
| Compound | Uom | growth inhibition |
| --- | --- | --- |
| COc1ccccc1N=NC(C(=O)c1ccccc1)C(=O)c1ccccc1 | % | 4 |
| Cc1c(C2=C(Br)C(=O)N(C)C2=O)c(=O)n(C)c(=O)n1C | % | 8 |
| Cc1c(C(=O)C(=O)c2ccccc2)c(C)c(C(=O)C(=O)c2ccccc2)c(C)c1C(=O)C(=O)c1ccccc1 | % | -5 |
| O=[N+]([O-])c1ccc([N+]2=NC(c3ccccc3)=NN(c3ccccc3)C2)cc1 | % | 7 |
| COC(=O)C1=C(C)NC(C)=C(C(=O)OCCCN2CCC(c3ccccc3)(c3ccccc3)CC2)C1c1cccc([N+](=O)[O-])c1 (stereo not given) | % | 98 |

[in] For the compound "COc1cc2c3c(cccc3c1)C(=O)N(CCN(C)C)C2=O" , give its measured growth inhibition value.
[out] -32

[in] For the compound "CCCCc1cc(O)ccc1O" , give its measured growth inhibition value.
[out] 1

[in] For the compound CCC(C)COC(=O)c1ccc(N=Cc2ccc(C=Nc3ccc(C(=O)OCC(C)CC)cc3)cc2)cc1 (stereo not given) , give its measured growth inhibition value.
[out] -4

====

# Test Summary: NCI Yeast Anticancer Drug Screen. Data for the rad50 strain (AID 155);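 also: 0% = growth of vehicle-only cultures of the same strain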
# Condition Notes: S. cerevisiae rad50 strain growth inhibition; at 50.0 µM; active compounds read high
About 79,000 compounds went through this panel and 15% of them were active in at least one assay; those are over-represented in the sample as a whole.
Parameter: growth inhibition (%)
Number in %, nothing else.

Here is how some compounds turned out for growth inhibition.
| Compound | Parameter | Reported Value |
| --- | --- | --- |
| CCCCCCCCCCCCCCCCCCN(C)CC(COP(=O)([O-])OCC[N+](C)(C)C)OC (stereo not drawn) | growth inhibition | 88.2 |
| Cc1ccc(S/N=C\c2ccccc2O)cc1 | growth inhibition | 89.6 |

Turning to the following compound.
[in] For the compound "C/C(=N\NC(=S)N1CCCCC1)c1cccc(C)n1" , give its measured growth inhibition value.
[out] 89.7

====

compounds and their reported growth inhibition
# Test Summary: NCI Yeast Anticancer Drug Screen. Data for the CLN2oe strain (AID 163);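 also: 0% = growth of vehicle-only control cultures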
# Condition Notes: S. cerevisiae CLN2oe strain, at 3.7 µM, active compounds read high
About 79,000 compounds went through this panel and 15% of them were active in at least one assay; those are over-represented in the sample as a whole. Calls of active or inactive are those of the source. Cut-off read from the data, not from the text of the source: active = growth inhibition above about 70%; inactive = the rest.

[in] For the compound "Cc1ccc(N)c(S)c1" , give its measured growth inhibition value.
[out] -3% (inactive)

[in] For the compound "CN(CCc1ccccn1)c1ccc2c(c1)Cc1ccccc1-2" , give its measured growth inhibition value.
[out] -16% (inactive)

[in] For the compound "Cc1ccc(CCC2=CCCc3c2ccc2ccccc32)cc1" , give its measured growth inhibition value.
[out] -2% (inactive)

[in] For the compound CCCCCCCCCCCCCCCCCCOCC(O)COP(=O)(O)OCC1OC(n2cc(F)c(=O)[nH]c2=O)CC1O (stereo unspecified) , give its measured growth inhibition value.
[out] 28% (inactive)

[in] For the compound "COc1ccc(/C=C2\SC(=S)N(/C=C/c3nc4ccccc4[nH]c3=O)C2=O)cc1OC" , give its measured growth inhibition value.
[out] -11% (inactive)

[in] For the compound "COC(=O)C1=C(C)NC(C)=C(C(=O)OC)C1c1cccc(/[N+]([O-])=C/c2ccccc2)c1" , give its measured growth inhibition value.
[out] 6% (inactive)

[in] For the compound "Oc1cccc2c(Cl)ccnc12" , give its measured growth inhibition value.
[out] 96% (active)

====

# Test Summary: NCI Yeast Anticancer Drug Screen. Data for the wt2 strain (AID 169);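 also: 0% = growth of vehicle-treated yeast cultures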
# Condition Notes: S. cerevisiae wt2 strain growth inhibition; at 33.0 µM
About 79,000 compounds went through this panel and 15% of them were active in at least one assay; those are over-represented in the sample as a whole. Active and inactive are the calls of the source. No stated cut-off is given here; in the data, active means growth inhibition above about 70%; inactive means the rest.
Could you please pick one outcome from this set? true (1) (active), false (0) (inactive)

Some solved cases for reference:
| Compound | Discrete Label |
| --- | --- |
| CCNc1nnc(CSc2nc(-c3ccccc3)c(-c3ccccc3)[nH]2)s1 | true (1) |
| Nc1ncncc1C(C1=C(O)COC1=O)C1=C(O)COC1=O | false (0) |
| COc1ccc(/C=C/C(=O)C(C)(C)Br)cc1 | false (0) |
| CC(=O)OC1CCC2(C)C(=CCC3C4CCC5(OC6CC(C)CN(C(C)=O)C6C5C)C(C)=C4C(=O)C32)C1 (stereo unspecified) | true (1) |
| N#CC(C(=O)Nc1ccccc1)C1=C(Cl)C(=O)c2ccccc2C1=O (stereo unspecified) | true (1) |

[in] Test call for this compound, please: "CC(=O)Cc1ccc[cH-]1.[Fe+2].c1cc[cH-]c1"
[out] false (0)

[in] Test call for this compound, please: "O=Cc1cccc2ccc3ccccc3c12"
[out] false (0)

[in] Test call for this compound, please: "O=[n+]1c2ccc(Cl)cc2n([O-])c2ccc(Cl)cc21"
[out] false (0)

[in] Test call for this compound, please: "O=[N+]([O-])c1ccc([N+]2=NC(c3ccccc3)=NN(c3ccccc3)C2)cc1"
[out] false (0)

[in] Test call for this compound, please: "CSC(=S)N/N=C(\C)c1cccc(C)n1"
[out] false (0)

[in] Test call for this compound, please: "OC1CSCCCSCCSCCCSC1"
[out] false (0)

[in] Test call for this compound, please: "O=C1C=CC(=O)N1c1ccc2c(c1)Cc1cc(NC(=O)C(F)(F)F)ccc1-2"
[out] false (0)

[in] Test call for this compound, please: "Cc1ccc(S(=O)(=O)NCCSS(=O)(=O)c2ccc(C)cc2)cc1"
[out] true (1)

[in] Test call for this compound, please: "S=C(Nc1ccc(Cl)c(Cl)c1)SCc1ccc2c(c1)OCO2"
[out] true (1)

[in] Test call for this compound, please: "CN(C)CCn1c2c3ccccc3ccc2c2oc(=O)c3ccccc3c21"
[out] true (1)

[in] Test call for this compound, please: "CC(C)[N+]([O-])(CCCNc1c2ccccc2nc2cccc([N+](=O)[O-])c12)C(C)C"
[out] true (1)

[in] Test call for this compound, please: "N#Cc1c(N)[nH]c2ccc(Sc3ccccc3)cc12"
[out] true (1)

[in] Test call for this compound, please: Cc1ccc(C2C(Cl)C(=O)N2n2cnc3ccccc3c2=O)cc1 (stereo unspecified)
[out] false (0)

[in] Test call for this compound, please: "CSC(=S)Nc1cccc(C)n1"
[out] false (0)

[in] Test call for this compound, please: "NC(=NCc1ccccc1)N/N=C\c1ccnc2ccccc12"
[out] false (0)

[in] Test call for this compound, please: CCCN(CCC)CC(O)c1cc(-c2ccc(Cl)cc2)nc2c(C)c(Cl)ccc12 (stereo unspecified)
[out] true (1)

[in] Test call for this compound, please: O=C1C2CC[C@@H]3C(=O)C(Cl)(Cl)[C@@H]3CCC2C1(Cl)Cl (stereo partly specified)
[out] false (0)

[in] Test call for this compound, please: CC(C)=CC(=O)O[C@@H]1CC(C)(C)CC2C3=CCC4[C@]56CC[C@](O)(OC5)C(C)(C)C6CC[C@@]4(C)C3(C)CC[C@]21C(=O)O (stereo partly specified)
[out] true (1)

[in] Test call for this compound, please: "CC(=O)OCCOCNC(=S)N/N=C(\C)c1cnccn1"
[out] false (0)

[in] Test call for this compound, please: O=C(O)C1OC1(c1cccc(Cl)c1)c1ccccc1Cl (stereo unspecified)
[out] false (0)

[in] Test call for this compound, please: "CC(=O)Nc1ccc(SC(C)=O)cc1"
[out] false (0)

[in] Test call for this compound, please: "O=C1Nc2ccc(Cl)c(I)c2C1=O"
[out] false (0)
